# assayProtocol: qHTS Assay for NPC1 Promoter Activators: Hit Validation Using Renila Luciferase Read-Out for NPC1
# experimentalParameters: Huh7 NPC1 promoter-luciferase reporter, luminescence, 24 h; series mostly up to 76.9 µM
Records with an inconclusive call do not appear. Activity calls are given as the source filed them. The call rests on the fitted dose curve; in most records, active means well fitted activation curve with a large enough effect; inconclusive means small, poorly fitted or top-dose-only effect; inactive means no such curve, though single readings can be large or run the other way.
Pick one: active, inactive

Task: Hello, I am checking results. What call was entered for COCC1CCN(C(=O)c2ccc3oc(Cc4ccccc4)nc3c2)C1 (stereo unspecified) ?
Output: inactive

Task: Hello, I am checking results. What call was entered for `Cc1ccc(C2C3=C(CC(C)(C)CC3=O)N(CCN3CCOCC3)C3=C2C(=O)CC(C)(C)C3)cc1` ?
Output: active

Task: Hello, I am checking results. What call was entered for `O=C(CSc1nnc(Cc2cc(=O)[nH]c(=O)[nH]2)n1-c1ccc(Cl)cc1)NC1CCCC1` ?
Output: inactive

Task: Hello, I am checking results. What call was entered for `O=C(c1cccc(Oc2ccc([N+](=O)[O-])cc2)c1)N1CCOCC1` ?
Output: inactive

Task: Hello, I am checking results. What call was entered for `CNC(=O)Cn1nc(C)c2ccccc2c1=O` ?
Output: inactive

Task: Hello, I am checking results. What call was entered for `CC(=O)NC(=S)Nc1ccc2oc(-c3cc(F)c(F)cc3Cl)nc2c1` ?
Output: inactive

Task: Hello, I am checking results. What call was entered for `Cc1ccc(NC(=O)Nc2cccc3ccccc23)cc1` ?
Output: inactive

Task: Hello, I am checking results. What call was entered for `CCOc1cc(C(=O)N=c2sccn2C)ccc1OC(F)F` ?
Output: inactive

Task: Hello, I am checking results. What call was entered for `CC(=O)c1c(C)[nH]c(C(=O)Nc2cccc(S(=O)(=O)N(C)C)c2)c1C` ?
Output: active

Task: Hello, I am checking results. What call was entered for `C=CCOC(=O)N1CCN(c2cccc(C(F)(F)F)c2)CC1` ?
Output: inactive

Task: Hello, I am checking results. What call was entered for CC1CCCN(C(=S)Nc2ccc(Nc3ccccc3)cc2)C1 (stereo unspecified) ?
Output: inactive

###

# assayProtocol: qHTS Assay for NPC1 Promoter Activators: Hit Validation Using Renila Luciferase Read-Out for NPC1
# experimentalParameters: Huh7 NPC1 promoter-luciferase reporter, luminescence, 24 h; series mostly up to 76.9 µM
Results filed as inconclusive are left out. Calls of active or inactive are those of the source. Calls come from the whole dose curve; as a rule, active = well fitted activation curve with a large enough effect; inconclusive = small, poorly fitted or top-dose-only effect; inactive = no such curve, though single readings can be large or run the other way.
Pick one: T (active), F (inactive)

Task: Hello, I am checking results. What call was entered for NC(=O)C1(NC(=O)[C@@H]2CC3(CC(c4cccc(NC(=O)[C@@H]5CCC(=O)N5)c4)=NO3)CN2C(=O)c2ccccc2)CC1 (some centres not stated) ?
Output: F

Task: Hello, I am checking results. What call was entered for `COc1ccc(NC(=O)Nc2ccc(Cc3ccncc3)cc2)cc1OC` ?
Output: F

Task: Hello, I am checking results. What call was entered for `CC(=O)[C@@H]1[C@@H](C(=O)c2ccc(C)cc2)[C@]2(C(=O)Nc3ccccc32)[C@H]2C=Cc3cc(F)ccc3N12` ?
Output: F

Task: Hello, I am checking results. What call was entered for `COc1ccc(/C=C\C(=O)c2c(O)ccc3c(C)cc(=O)oc23)cc1OC` ?
Output: F

Task: Hello, I am checking results. What call was entered for `CCC(=O)NC(=S)Nc1ccc(N2CCOCC2)cc1` ?
Output: F

Task: Hello, I am checking results. What call was entered for `Cc1ccc(NC(=O)c2ncc(Cl)c(Cl)c2Cl)cc1C` ?
Output: F

Task: Hello, I am checking results. What call was entered for `O=C(c1cc2cc([N+](=O)[O-])ccc2oc1=O)n1cccn1` ?
Output: F

Task: Hello, I am checking results. What call was entered for `CCN(CC)S(=O)(=O)c1ccc(NCc2ccccn2)nc1` ?
Output: F

Task: Hello, I am checking results. What call was entered for `NCCOc1ccccc1-c1ccccc1` ?
Output: F

Task: Hello, I am checking results. What call was entered for `Cc1nc(SCC(=O)NC(=O)NC(C)(C)C)nc(C)c1C` ?
Output: F

Task: Hello, I am checking results. What call was entered for `CCCCCCOc1ccc(OC(=O)c2cccnc2)cc1` ?
Output: T

Task: Hello, I am checking results. What call was entered for `N#C/C(=C\c1ccc[nH]1)C(=O)Nc1ccccc1Cl` ?
Output: T

Task: Hello, I am checking results. What call was entered for CC(Sc1ncnc2c1cnn2-c1ccccc1)C(=O)Nc1ccc(N2CCOCC2)cc1 (configuration not stated) ?
Output: F

Task: Hello, I am checking results. What call was entered for `CCOC(=O)CSc1nc2cc(C)ccc2cc1C#N` ?
Output: F

Task: Hello, I am checking results. What call was entered for `COc1ccc(/C=C\c2onc(C)c2S(=O)(=O)N2CCC(C(=O)NCCC(C)C)CC2)cc1` ?
Output: F

Task: Hello, I am checking results. What call was entered for `CCCN(CCC)CCCNC(=O)c1cc2cc3ccc(Cl)cc3nc2o1` ?
Output: F

Task: Hello, I am checking results. What call was entered for `Cc1ccc(C(=O)Nc2ccc(N3CCN(C)CC3)nc2)cc1` ?
Output: F

Task: Hello, I am checking results. What call was entered for `O=C(CSc1ncccn1)Nc1cccc2ccccc12` ?
Output: F

Task: Hello, I am checking results. What call was entered for `Cc1ccc(C(=O)c2cn[nH]c2-c2ccccc2O)cc1` ?
Output: F

Task: Hello, I am checking results. What call was entered for `O=C(CSc1nccn1Cc1ccco1)Nc1ccccc1F` ?
Output: T

Task: Hello, I am checking results. What call was entered for `O=C(CCN1C(=O)c2ccccc2C1=O)Nc1ccc(-c2nc3ccccc3s2)cc1` ?
Output: F

Task: Hello, I am checking results. What call was entered for `COc1ccc([N+](=O)[O-])cc1COc1ccc2c(-c3ccccc3)cc(=O)oc2c1` ?
Output: T

Every entry's value here was drawn from PubChem BioAssay AID720526.
